The values you see were collected from PubChem BioAssay (EPA / NIEHS).

- Read-out: Early growth response protein 1 (EGR1) transcription factor, EGR1 (gene 1958)
- Assay Details: LTEA_HepaRG_EGR1: Life Technologies and Expression Analysis (LTEA) Assay for Early growth response protein 1 (EGR1) transcription factor using HepaRG (AID 2283490)
- Condition Set: mRNA level, 48 h; actives raise or lower the signal
The source made the active and inactive calls. Rule for the calls: active = hit-call score of the fitted dose curve at least 0.9, where 1 is the maximum; inactive = score below 0.9.
// classify into y (active), n (inactive)

>  <Structure Smiles>
ClC1=C(Cl)[C@]2(Cl)[C@@H]3[C@@H]4C[C@@H]([C@H]5O[C@@H]45)[C@@H]3[C@@]1(Cl)C2(Cl)Cl

>  <Class Name>
n

$$$$
>  <Structure Smiles>
O=C(O)C(F)(F)C(F)(F)C(F)(F)C(F)(F)C(F)(F)C(F)(F)C(F)(F)C(F)(F)F

>  <Class Name>
y

$$$$

Would you kindly look at the next entry?
Exercise: For `C[C@]12CCC(=O)C=C1CC[C@@H]1[C@@H]2CC[C@@]2(C)[C@H]1CC[C@]2(C)O` , what call appears in the results of this test?
Key: n
